SYSTEM: PI3Kα H1047R (T47D cells) (Homo sapiens, UniProt P42336, H1047R)
Construct: endogenous in cells; host or cells: T47D cells
Sequence (P42336 whole entry H1047R): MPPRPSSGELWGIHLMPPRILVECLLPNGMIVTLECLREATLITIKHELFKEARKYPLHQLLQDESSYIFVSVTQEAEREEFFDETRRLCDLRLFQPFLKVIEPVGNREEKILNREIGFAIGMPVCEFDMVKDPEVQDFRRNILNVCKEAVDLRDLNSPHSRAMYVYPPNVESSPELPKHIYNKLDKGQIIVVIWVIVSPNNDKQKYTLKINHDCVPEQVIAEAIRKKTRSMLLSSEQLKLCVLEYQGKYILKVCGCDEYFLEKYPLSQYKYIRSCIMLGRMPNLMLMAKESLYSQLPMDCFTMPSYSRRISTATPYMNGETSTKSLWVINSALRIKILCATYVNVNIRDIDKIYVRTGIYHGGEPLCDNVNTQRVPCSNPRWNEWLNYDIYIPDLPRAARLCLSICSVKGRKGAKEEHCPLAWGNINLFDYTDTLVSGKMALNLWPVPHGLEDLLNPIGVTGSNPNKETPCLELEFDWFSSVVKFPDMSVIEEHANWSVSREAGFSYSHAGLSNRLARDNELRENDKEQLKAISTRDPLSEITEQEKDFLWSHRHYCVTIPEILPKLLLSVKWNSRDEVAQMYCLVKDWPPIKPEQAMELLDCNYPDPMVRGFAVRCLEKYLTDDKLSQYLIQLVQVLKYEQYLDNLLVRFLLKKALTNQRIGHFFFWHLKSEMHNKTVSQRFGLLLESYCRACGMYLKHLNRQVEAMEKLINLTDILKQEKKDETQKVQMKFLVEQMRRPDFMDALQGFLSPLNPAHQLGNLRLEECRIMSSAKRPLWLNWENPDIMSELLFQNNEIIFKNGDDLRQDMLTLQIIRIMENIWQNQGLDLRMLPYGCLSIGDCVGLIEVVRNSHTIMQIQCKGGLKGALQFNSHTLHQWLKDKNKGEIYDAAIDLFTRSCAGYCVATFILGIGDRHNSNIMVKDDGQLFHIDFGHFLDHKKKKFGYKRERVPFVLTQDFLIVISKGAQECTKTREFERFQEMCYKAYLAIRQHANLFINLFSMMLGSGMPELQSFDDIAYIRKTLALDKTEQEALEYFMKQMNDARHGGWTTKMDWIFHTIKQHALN
Sequence (P27986 whole entry partner): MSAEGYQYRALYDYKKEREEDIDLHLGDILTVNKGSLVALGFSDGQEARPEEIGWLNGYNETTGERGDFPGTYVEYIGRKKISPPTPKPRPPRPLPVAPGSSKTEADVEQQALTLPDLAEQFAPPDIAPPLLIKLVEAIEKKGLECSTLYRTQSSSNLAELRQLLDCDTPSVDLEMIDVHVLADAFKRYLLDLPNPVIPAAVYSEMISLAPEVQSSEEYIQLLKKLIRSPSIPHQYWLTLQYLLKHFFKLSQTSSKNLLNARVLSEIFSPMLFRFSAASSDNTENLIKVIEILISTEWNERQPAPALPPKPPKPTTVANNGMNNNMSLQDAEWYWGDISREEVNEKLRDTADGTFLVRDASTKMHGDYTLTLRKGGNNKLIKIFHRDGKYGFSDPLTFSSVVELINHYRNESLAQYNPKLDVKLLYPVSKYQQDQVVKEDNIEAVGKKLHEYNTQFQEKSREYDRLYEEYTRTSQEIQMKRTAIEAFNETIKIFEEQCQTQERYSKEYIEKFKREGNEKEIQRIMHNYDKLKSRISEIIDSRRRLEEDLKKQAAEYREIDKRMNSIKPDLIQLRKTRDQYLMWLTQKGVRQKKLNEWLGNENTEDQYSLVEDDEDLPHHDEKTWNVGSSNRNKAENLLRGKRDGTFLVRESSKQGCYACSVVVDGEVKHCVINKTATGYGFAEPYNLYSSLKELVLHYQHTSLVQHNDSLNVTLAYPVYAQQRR
EXPERIMENT_NOTES: PI3Kα cellular assay: pAKT HTRF in T47D cells after EGF stimulation
Format: cell-based
CONDITIONS_USED: T47D cells (PI3Kα H1047R), pAKT S473 HTRF, EGF stimulation
Description: SKBR3 or T47D cells are seeded in DMEM containing 10% FBS at 25k cells/well into 96-well cell culture format. […] 384 well plate is left overnight at room temperature before reading HTRF on an Envision plate reader. ND denotes value not determined with that assay for the specified compound; • for T47D (H1047R) selectivity over SKBR3 (WT): A denotes >20-fold; B denotes 20-fold≥value>5-fold; C denotes ≤5-fold. […] ND denotes value not determined with that assay for the specified compound.
pIC50: −log10 of the molar value.
# pIC50 listing for each entry below
MEASURED_METRIC: pIC50

{"MOLECULE": "CCn1nc(N)c2cc(-c3cc(=O)n4cc(C)cc([C@@H](C)Nc5ccccc5C(=O)O)c4n3)ccc21 [Compound 722]", "MEASURED_METRIC": "pIC50", "VALUE_MEASURED": "> 7.00"}
{"MOLECULE": "CC#Cc1nc2c([C@H](C)Nc3ccccc3C(=O)O)cc(C)cn2c(=O)c1C [Compound 1206]", "MEASURED_METRIC": "pIC50", "VALUE_MEASURED": "5.70 to 6.30"}
{"MOLECULE": "Cc1cc(C(C)Nc2cccc3onc(O)c23)c2nc(-c3cccnc3)c(C)c(=O)n2c1 (centres unmarked) [Compound 1365]", "MEASURED_METRIC": "pIC50", "VALUE_MEASURED": "6.30 to 7.00"}
{"MOLECULE": "Cc1cc(C(C)Nc2ccccc2C(=O)O)c2nc(N3C[C@H]4C[C@@H](C5CCN(S(=O)(=O)N(C)C)CC5)C[C@H]4C3)cc(=O)n2c1 (some centres unmarked) [Compound 844]", "MEASURED_METRIC": "pIC50", "VALUE_MEASURED": "5.70 to 6.30"}
{"MOLECULE": "Cc1cc(C(C)Nc2ccccc2C(=O)O)c2nc(-c3cnc4c(c3)c(C)c(C)n4C)c(C)c(=O)n2c1 (centres unmarked) [Compound 1410]", "MEASURED_METRIC": "pIC50", "VALUE_MEASURED": "> 7.00"}
{"MOLECULE": "CC1=CC2C(=O)C=C([C@H]3CC[C@H](CC4CC[C@H](O)C4)CC3)N=C2C([C@H](C)Nc2ccccc2C(=O)O)=C1 (some centres unmarked) [Compound 778]", "MEASURED_METRIC": "pIC50", "VALUE_MEASURED": "< 5.70"}
{"MOLECULE": "Cc1cc(C(C)Nc2ccccc2C(=O)O)c2nc(C3CCN(CC(F)F)CC3)cc(=O)n2c1 (centres unmarked) [Compound 1308]", "MEASURED_METRIC": "pIC50", "VALUE_MEASURED": "6.30 to 7.00"}
{"MOLECULE": "Cc1cc(C(C)Nc2ccccc2C(=O)O)c2nc(-c3ccc(F)cc3)c(C)c(=O)n2c1 (centres unmarked) [Compound 691]", "MEASURED_METRIC": "pIC50", "VALUE_MEASURED": "> 7.00"}
{"MOLECULE": "Cc1cc(C(C)Nc2ccccc2C(=O)O)c2nc(-c3ccc4c(c3)c(C#N)nn4C3CC3)c(C)c(=O)n2c1 (centres unmarked) [Compound 1026]", "MEASURED_METRIC": "pIC50", "VALUE_MEASURED": "6.30 to 7.00"}
{"MOLECULE": "Cc1cc([C@@H](C)Nc2ccccc2C(=O)O)c2nc(-c3cnc4c(c3)c(C)c(C)n4C)c(C)c(=O)n2c1 (single isomer, unassigned) [Compound 804]", "MEASURED_METRIC": "pIC50", "VALUE_MEASURED": "> 7.00"}
{"MOLECULE": "Cc1cc(C(C)Nc2ccccc2C(=O)O)c2nc(N3C[C@H](C)C[C@H](C(F)F)C3)cc(=O)n2c1 (some centres unmarked) [Compound 781]", "MEASURED_METRIC": "pIC50", "VALUE_MEASURED": "6.30 to 7.00"}
{"MOLECULE": "Cc1cc(C(C)Nc2cccnc2C(=O)O)c2nc(-c3ccnc(C4CC4)c3)c(C)c(=O)n2c1 (centres unmarked) [Compound 1241]", "MEASURED_METRIC": "pIC50", "VALUE_MEASURED": "< 5.70"}
{"MOLECULE": "Cc1cc([C@@H](C)Nc2ccccc2C(=O)O)c2nc(-c3ccnc(C4CC4)c3)cc(=O)n2c1 [Compound 1155]", "MEASURED_METRIC": "pIC50", "VALUE_MEASURED": "< 5.70"}
{"MOLECULE": "CC(=O)Nc1nn(C)c2ccc(-c3cc(=O)n4cc(C)cc([C@@H](C)Nc5ccccc5C(=O)O)c4n3)cc12 [Compound 793]", "MEASURED_METRIC": "pIC50", "VALUE_MEASURED": "< 5.70"}
{"MOLECULE": "Cc1cc([C@H](C)Nc2ccccc2C(=O)O)c2nc(-c3cnc(C#N)c(Cl)c3)c(C)c(=O)n2c1 (single isomer, unassigned) [Compound 978]", "MEASURED_METRIC": "pIC50", "VALUE_MEASURED": "> 7.00"}
{"MOLECULE": "Cc1cc([C@@H](C)Nc2ccccc2C(N)=O)c2nc(-c3ccc(C4CC4)nc3)c(C)c(=O)n2c1 [Compound 1153]", "MEASURED_METRIC": "pIC50", "VALUE_MEASURED": "6.30 to 7.00"}
{"MOLECULE": "Cc1cc([C@H](C)Nc2ccccc2C(=O)O)c2nc(-c3cnc4c(c3)c(C)c(C)n4C)c(C)c(=O)n2c1 [Compound 805]", "MEASURED_METRIC": "pIC50", "VALUE_MEASURED": "< 5.70"}
{"MOLECULE": "Cc1cc([C@@H](C)Nc2ccccc2C(=O)O)c2nc(-c3ccc(C4CC4)nc3)c(C)c(=O)n2c1 (single isomer, unassigned) [Compound 973]", "MEASURED_METRIC": "pIC50", "VALUE_MEASURED": "> 7.00"}
{"MOLECULE": "C=CC(=O)Nc1ccc(C(=O)O)c(N[C@H](C)c2cc(C)cn3c(=O)c(C)c(N4Cc5ccccc5C4)nc23)c1 [Compound 1121]", "MEASURED_METRIC": "pIC50", "VALUE_MEASURED": "< 5.70"}
{"MOLECULE": "Cc1cc([C@@H](C)Nc2ccccc2C(=O)O)c2nc(C3C[C@@H](C)O[C@@H](C)C3)cc(=O)n2c1 (some centres unmarked) [Compound 924]", "MEASURED_METRIC": "pIC50", "VALUE_MEASURED": "6.30 to 7.00"}
